target: UniProt:P43405; experiment: Syk kinase activity (inhibition) assay, 33P-ATP filter assay; format: biochemical; details: 10 μM test agent; Syk (h) 5-10 mU; 40 minutes at room temperature
Observed Property: inhibition at 10 µM (%)

In [3]: df
Out[3]:
                            chemical_string  observed_result
0  CN(C)CCN1CCN(c2ccc(-c3cc(C(F)(F)F)cc(C(F)(F)F)c3)cn2)CC1               56
1     CN(C)CCN(C)c1ccc(-c2cccc(N(C)C)c2)cn1               45
2  c1cc(N2CCN(CCN3CCCC3)CC2)ncc1-c1ccc2c(c1)OCO2               32
3      CCCC/C=C/c1ccc(N2CCN(CCN(C)C)CC2)nc1               31
4       CCOc1cccc(-c2ccc(N(C)CCN(C)C)nc2)c1               42

----------
target: Syk (h) (Homo sapiens); assay: Syk kinase activity (inhibition) assay, 33P-ATP filter assay; type: biochemical; details: 10 μM test agent; Syk (h) 5-10 mU; 40 minutes at room temperature
Observed Property: inhibition at 10 µM (%)

                             chemical_string  observed_result
 0  CN(C)CCN1CCN(c2ccc(-c3ccc(OC(F)(F)F)cc3)cn2)CC1               30
 1        CN(C)CCN(C)c1ccc(-c2ccc(Cl)cc2)cn1               51
 2           COc1cncc(-c2ccc(N3CCOCC3)nc2)c1               36
 3         Fc1ccc(-c2ccc(N3CCOCC3)nc2)c(F)c1               34
 4    CCCC/C=C/c1ccc(N2CCN(CCN3CCCC3)CC2)nc1               38
 5  COc1cc(-c2ccc(N3CCN(CCN4CCCC4)CC3)nc2)cc(OC)c1OC               37
 6            Oc1cccc(-c2ccc(N3CCOCC3)nc2)c1               35
 7  COc1cc(-c2ccc(N3CCN(CCN(C)C)CC3)nc2)cc(OC)c1OC               36
 8  Fc1ccc(-c2ccc(N3CCN(CCN4CCCC4)CC3)nc2)c(F)c1               36
 9        CN(C)CCN(C)c1ccc(-c2ccc(F)cc2F)cn1               45
10  CN(C)CCN1CCN(c2ccc(/C=C/c3ccccc3)cn2)CC1               36
